System: COLO 205 colon
Result Type: GI50

INSERT INTO results (compound, target, result_type, meas_value) VALUES
  ('O=C(Nc1ccc2c(c1)OCO2)C(=O)c1c[nH]c2cc(F)ccc12', 'COLO 205 colon', 'GI50', '13.5 µM'),
  ('Cc1cc(NNC(=O)c2ccccc2O)nc(Nc2nc3ccccc3o2)n1', 'COLO 205 colon', 'GI50', '2.75 µM'),
  ('COc1ccc2c(c1)N(CCO)C1=C(C(=O)OC1)C2c1ccccc1 (centres undefined)', 'COLO 205 colon', 'GI50', '1.8 µM'),
  ('CC(=O)C1CCC2C3CC=C4CC(SC(=N)N)CCC4(C)C3CCC12C (centres undefined)', 'COLO 205 colon', 'GI50', '1.6 µM'),
  ('COC(=O)C1=C(O)[C@H](C(=O)OC)[C@]2(O)[C@@H](C(=O)OC)[C@H]1C[C@@H](c1ccc(OC(=O)/C=C/c3ccco3)cc1)[C@@H]2C(=O)OC', 'COLO 205 colon', 'GI50', '15 µM'),
  ('O=C(Cn1c(C(=O)c2ccccc2)nc2ccccc21)c1ccc(F)cc1', 'COLO 205 colon', 'GI50', '17.9 µM'),
  ('CO[C@@H]1[C@H]2[C@@H](C)c3ccoc3C[C@@H]2[C@@]2(C)CC[C@H](OC(=O)c3ccccc3)[C@](C)(C(=O)O)[C@]2(O)[C@@H]1OC(=O)c1ccccc1', 'COLO 205 colon', 'GI50', '7.34 µM'),
  ('CCOC(=O)c1csc(NC(=O)COc2cccc(/C=C3\CSc4ccccc4C3=O)c2)n1', 'COLO 205 colon', 'GI50', '8.58 µM');

Here's the next entry for you.
Inquiry: Short answer please: GI50, COLO 205 colon, entry O=c1c(-c2ccc(O)cc2)coc2cc(OC3OC(CO)C(O)C(O)C3O)cc(O)c12 (centres undefined)
Reply text: > 100 µM

Reference for the values: PubChem BioAssay (NCI)
